Target: PRMT5/MEP50 complex (Homo sapiens, UniProt O14744+Q9BQA1)
Sequence (O14744 whole entry, species assumed): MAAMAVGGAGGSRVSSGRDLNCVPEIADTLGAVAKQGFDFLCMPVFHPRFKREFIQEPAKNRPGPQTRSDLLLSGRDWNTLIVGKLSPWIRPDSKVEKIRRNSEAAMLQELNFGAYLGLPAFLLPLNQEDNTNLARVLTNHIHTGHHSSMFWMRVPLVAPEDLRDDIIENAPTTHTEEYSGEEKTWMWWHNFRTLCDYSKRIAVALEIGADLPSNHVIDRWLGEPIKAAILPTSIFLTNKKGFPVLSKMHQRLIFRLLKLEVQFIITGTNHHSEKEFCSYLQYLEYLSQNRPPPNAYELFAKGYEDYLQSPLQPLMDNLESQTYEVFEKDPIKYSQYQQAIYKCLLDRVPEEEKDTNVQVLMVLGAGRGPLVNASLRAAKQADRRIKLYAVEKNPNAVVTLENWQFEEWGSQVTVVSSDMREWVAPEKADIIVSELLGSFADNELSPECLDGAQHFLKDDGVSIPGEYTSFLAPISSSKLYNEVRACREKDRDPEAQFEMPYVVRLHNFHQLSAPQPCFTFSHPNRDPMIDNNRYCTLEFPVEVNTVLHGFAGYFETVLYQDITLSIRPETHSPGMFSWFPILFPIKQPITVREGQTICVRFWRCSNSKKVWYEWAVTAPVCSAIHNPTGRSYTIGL
Sequence (Q9BQA1 whole entry partner, species assumed): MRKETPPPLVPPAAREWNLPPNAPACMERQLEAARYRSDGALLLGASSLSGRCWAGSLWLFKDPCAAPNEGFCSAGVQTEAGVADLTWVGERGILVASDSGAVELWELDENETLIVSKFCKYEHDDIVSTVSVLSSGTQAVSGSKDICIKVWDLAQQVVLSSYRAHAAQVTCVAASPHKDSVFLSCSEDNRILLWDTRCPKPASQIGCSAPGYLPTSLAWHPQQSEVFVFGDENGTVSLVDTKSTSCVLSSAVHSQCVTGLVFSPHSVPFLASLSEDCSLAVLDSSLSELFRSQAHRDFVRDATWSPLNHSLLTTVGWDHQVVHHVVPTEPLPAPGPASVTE
Assay: Competitive fluorescence polarization assay against a tracer peptide binding to the PRMT5/MEP50 complex
Settings: competitive FP; 200 nM PRMT5:MEP50 complex, 1 nM tracer peptide 50; 50 mM HEPES, 250 mM NaCl, 1 mM TCEP, 0.01% Tween 20, pH 8.0; 1 hour incubation; ex 485 nm / em 535 nm; four-parameter fit
Starred links: 1 amine or outer side, 2 acyl side, 3 side chain; linkers in the order of their positions; H or OH if unused. Non-standard residues stand in square brackets, D forms with d. Residues, ends and D or L forms follow the SMILES beside them. X1 = O=C([C@H](Cc1ccc2c(c1)OC(F)(F)O2)N[*:1])[*:2]; Phe(4-CF3) = N[C@@H](Cc1ccc(C(F)(F)F)cc1)C(=O)O; X2 = N#CCc1ccc(C[C@H](N[*:1])C(=O)[*:2])cc1; Phe(4-CN) = N#Cc1ccc(C[C@H](N)C(=O)O)cc1
I'd be grateful if you could share measured IC50 for these entries.
Enter your answer as a number in µM; do not include the unit.

Query IC50 on PRMT5/MEP50 complex (Homo sapiens, UniProt O14744+Q9BQA1) for CC(=O)N[C@H](C(=O)N1CCC[C@H]1C(=O)NCC(=O)N[C@@H](CCC(N)=O)C(=O)N[C@@H](Cc1ccc2c(c1)OC(F)(F)O2)C(=O)N[C@@H](CC(=O)O)C(=O)N[C@@H](CC(=O)O)C(=O)N[C@@H](C)C(=O)N[C@@H](CC(=O)O)C(N)=O)C(C)C [compound 45] (Ac-VPGQ[X1]DDAD-NH2) 17.1

Query IC50 on PRMT5/MEP50 complex (Homo sapiens, UniProt O14744+Q9BQA1) for CC(=O)N[C@H](C(=O)N1CCC[C@H]1C(=O)NCC(=O)N[C@@H](CCC(N)=O)C(=O)N[C@@H](Cc1ccc(C#N)cc1)C(=O)N[C@@H](CC(=O)O)C(=O)N[C@@H](CC(=O)O)C(=O)N[C@@H](C)C(=O)N[C@@H](CC(=O)O)C(N)=O)C(C)C [compound 42] (Ac-VPGQ[Phe(4-CN)]DDAD-NH2) 0.56

Query IC50 on PRMT5/MEP50 complex (Homo sapiens, UniProt O14744+Q9BQA1) for CC(=O)N[C@H](C(=O)N1CCC[C@H]1C(=O)NCC(=O)N[C@@H](CCC(N)=O)C(=O)N[C@@H](Cc1ccc(CC#N)cc1)C(=O)N[C@@H](CC(=O)O)C(=O)N[C@@H](CC(=O)O)C(=O)N[C@@H](C)C(=O)N[C@@H](CC(=O)O)C(N)=O)C(C)C [compound 43] (Ac-VPGQ[X2]DDAD-NH2) 14.6

Query IC50 on PRMT5/MEP50 complex (Homo sapiens, UniProt O14744+Q9BQA1) for CC(=O)N[C@H](C(=O)N1CCC[C@H]1C(=O)NCC(=O)N[C@@H](CCC(N)=O)C(=O)N[C@@H](Cc1ccc(C(F)(F)F)cc1)C(=O)N[C@@H](CC(=O)O)C(=O)N[C@@H](CC(=O)O)C(=O)N[C@@H](C)C(=O)N[C@@H](CC(=O)O)C(N)=O)C(C)C [compound 44] (Ac-VPGQ[Phe(4-CF3)]DDAD-NH2) 6.74
